Ref: patent US20210130452A1

# system.name: human IL-17A (human, UniProt Q16552 24-155, biotinylated with Sulfo-NHS-LC-Biotin in the AlphaScreen assays only)
# Sequence (Q16552 other isoform, or with tags, fused parts or gaps): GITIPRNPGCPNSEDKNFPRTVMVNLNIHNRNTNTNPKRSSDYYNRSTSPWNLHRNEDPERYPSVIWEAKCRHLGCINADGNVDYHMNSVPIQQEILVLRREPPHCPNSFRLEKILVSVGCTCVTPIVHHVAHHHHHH
# method.notes: cell-based or functional assay
measure.name: IL-17A-induced IL-6 production in HT-1080 cells, IC50 (nM)
Numbers only here, please. The scale is nM.

binder	unit.spec	test.value
02E03 (VHH, Class 1 Nanobody (anti-IL-17A); not shown: c-myc, His6 tag) VHH: EVQLVESGGGLVQPGGSLRLSCAASGFTFSSYAMSWARQAPGEGLEWVSDINSGGTRTTYADSVKGRFTISRDNAKNTLYLQMNSLKPEDTAVYVCAKLSVFRSQLGGKYYGGDYENRGQGTQVTVSS	nM	16.4

Return reported IL-17A-induced IL-6 production in HT-1080 cells, IC50; argument: 02A10 (VHH, Class 2 Nanobody (anti-IL-17A and IL-17A/F); not shown: c-myc, His6 tag) VHH: EVQLVESGGGLVQPGGSLRLSCAASGFALGYYAIGWFRQAPGKEREGVSCDSSSDGRTYYGDSVKGRFTISTDSAKNTVYLQMNSLKPEDTAVYYCATCTDFEYDYWGQGTQVTVSS
4.3

Return reported IL-17A-induced IL-6 production in HT-1080 cells, IC50; argument: 11A06 (VHH, Class 2 Nanobody (anti-IL-17A and IL-17A/F); not shown: c-myc, His6 tag) VHH: EVQLVESGGGLVQPGESLRLSCKASGFSLDYYALGWFRQAPGKEREGISCITSSDASAYYTDSVKGRFTISRDNSKNTVYLQMNSLKTEDTAIYYCAAALLTCSSYYDAYTYWGQGTQVTVSS
4
